tested on: MDA-MB-468 multi-cell spheroids, viability; assay: Anticancer human tumor MDA-MB-468 cell line growth inhibition [IpAb]; settings: second compound 0.316 µM; first compound 0.0316 µM; active compounds read low;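 note: spheroids exposed to agents for seven days; 100% = DMSO vehicle control viability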

molecule	viability, T/C
CC1(C)CCC(CN2CCN(c3ccc(C(=O)NS(=O)(=O)c4ccc(NCC5CCOCC5)c([N+](=O)[O-])c4)c(Oc4cnc5[nH]ccc5c4)c3)CC2)=C(c2ccc(Cl)cc2)C1 + CCN1CCN(Cc2ccc(Nc3ncc(F)c(-c4cc(F)c5nc(C)n(C(C)C)c5c4)n3)nc2)CC1	99.3%
Cn1ncnc1[C@H]1c2n[nH]c(=O)c3cc(F)cc(c23)N[C@@H]1c1ccc(F)cc1 + CC(C)NCC(C(=O)N1CCN(c2ncnc3c2C(C)CC3O)CC1)c1ccc(Cl)cc1	55.5%
C=CC(=O)N1CCN(c2nc(=O)n(-c3c(C)ccnc3C(C)C)c3nc(-c4c(O)cccc4F)c(F)cc23)C(C)C1 (stereo not given) + CCN1CCN(Cc2ccc(Nc3ncc(F)c(-c4cc(F)c5nc(C)n(C(C)C)c5c4)n3)nc2)CC1	103%
Cn1nccc1Nc1nccc(-c2ccn(C(CO)c3ccc(Cl)c(F)c3)c(=O)c2)n1 (stereo not given) + CC(C)NCC(C(=O)N1CCN(c2ncnc3c2C(C)CC3O)CC1)c1ccc(Cl)cc1	66%
C=CCn1c(=O)c2cnc(Nc3ccc(N4CCN(C)CC4)cc3)nc2n1-c1cccc(C(C)(C)O)n1 + CCN1CCN(Cc2ccc(Nc3ncc(F)c(-c4cc(F)c5nc(C)n(C(C)C)c5c4)n3)nc2)CC1	105%
C=CC(=O)N1CCN(c2nc(=O)n(-c3c(C)ccnc3C(C)C)c3nc(-c4c(O)cccc4F)c(F)cc23)C(C)C1 (stereo not given) + CC(C)NCC(C(=O)N1CCN(c2ncnc3c2C(C)CC3O)CC1)c1ccc(Cl)cc1	94.4%
Cn1nccc1Nc1nccc(-c2ccn(C(CO)c3ccc(Cl)c(F)c3)c(=O)c2)n1 (stereo not given) + CCN1CCN(Cc2ccc(Nc3ncc(F)c(-c4cc(F)c5nc(C)n(C(C)C)c5c4)n3)nc2)CC1	104%
Cc1nc(NC(=O)N2CCCC2C(N)=O)sc1-c1ccnc(C(C)(C)C(F)(F)F)c1 (stereo not given) + CC(C)NCC(C(=O)N1CCN(c2ncnc3c2C(C)CC3O)CC1)c1ccc(Cl)cc1	61.5%
CCCS(=O)(=O)Nc1ccc(F)c(C(=O)c2c[nH]c3ncc(-c4ccc(Cl)cc4)cc23)c1F + CC(C)NCC(C(=O)N1CCN(c2ncnc3c2C(C)CC3O)CC1)c1ccc(Cl)cc1	62.2%
Cn1ncc(Cl)c1-c1cc(C(=O)NC(CN)Cc2cccc(F)c2)sc1Cl (stereo not given) + CCN1CCN(Cc2ccc(Nc3ncc(F)c(-c4cc(F)c5nc(C)n(C(C)C)c5c4)n3)nc2)CC1	81.2%
